assay: yeast display, Sf9 membrane polyspecificity reagent, FACS + sequencing; frameworks hold sequencing errors
Reported endpoint: polyreactivity (PSR sort gate)

QVQLVESGGGLVQAGGSLRLSCAASGIISPFYAMGWYRQATGKERELVADISTGGTTTYADSVKGRFTISRDNAKNTVYLQLNSLKPEDTAVYYCNAEVSLTYYWIVWASYDYWGQGTQVTVSS = low polyreactivity
QVQLVESGGGLVQAGGSLRISCAASGSIFVTNAMGWYRQAPGKERELVAAISSGGNTNYADSVKGLFTISRDNAKNTVYLQMNSLKPEDTAVYYCAKDPDKVDYVDMDYWGQGTQVTVSS = low polyreactivity
QVQLVESGGGVVQAGGSLRLSCAASGRIFPYNAMGWYRQAPGKERELVAAISSGGSTTYADSVKGRFTISRDNAKNTVYLHMNSLKPEDTAVYYCAREVYRHYAPVGYDYWGQGTQVTVSS = high polyreactivity
QVQLVESGGGLVQSGGSLRLSCAASGRTYDSYAMGWYRPAPGKERELVAVISRSGRTYYADSVKGRFTISRDNAKNTVYLQMNSLKPEDTAVYYCAAKWFRTWSGYWGQGSQVTVSS = high polyreactivity
QVQLVESGGGLVQAGGSLRLSCADSGSTFVLNAMGWYRQAPGKERELVAAISRCGASTYYADSVKGRFTISRDNAKNTVYLQMNSLKPEDTAVYYCNASGYGPGVVIYLVLYDYWGQGTQVTVSS = low polyreactivity
QVQLVESGGGLVQAGGSLRLSSAASGNTFDSKAMGWYRQAPGKERELVAGISQGDGSTYADSVKGRFTISRDNAKNTVYFQMNSLKPEDTAVYYCAADRDYIMDYWGQGTQVTVSS = high polyreactivity

Query string: Give its polyreactivity (PSR sort gate) value. Item: QVQLVESGGGLVQAGGSLRLSCAASGSTFKQYAMGWYRQAPGKERELVAAIDRGGSTYYADSVKGRFTNSRDNAKNTVYLQMNSLKPEDTAVYFCAARFVQYLYAYDYWGQGTKVTVSS
Result string: low polyreactivity

Query string: Give its polyreactivity (PSR sort gate) value. Item: QVQLVESGGGLVQAGGSLRLSCAASGFTFRYYTMGWYRQAPGKERELVASITWRGGSTYYADSVKARFTISRDNAKNTVYLQMNSMKPEDTAVYYCNAERPYQYYPGIYRWYYYWGQGTQVTVSS
Result string: low polyreactivity

Query string: Give its polyreactivity (PSR sort gate) value. Item: QVQLVESGGGLVQAGGSLRLSCAASGFIFPLYTMGWYRQAPGKERELVAAITCSGGSTYYADSVKGGFTISRDNAKNTVYLQMNSLKPEDTAVYYCAKDYTYGMDWGQGTQVTVSS
Result string: low polyreactivity

Query string: Give its polyreactivity (PSR sort gate) value. Item: QVQLVESGGGLVQAGGSLRLSSAASGSTFIGNAMGWYRQAPGTARELVAAITRSGGSTFYADSVKGRFTISRDNAKNTVYLQMNSLKPDDTAVYYCASKGNPYRVPCSSYPKVNYWGQGTQVTVSS
Result string: high polyreactivity

Query string: Give its polyreactivity (PSR sort gate) value. Item: QVQLVESGGGLVQAGGSLRLSCAASGFIFSRYAMGWYRQAPGKERELVAAISWSGASTYYADSVKGRFTISRDNAKNTVYLQMNSLKPEDTAVYYCNAGYYRGEGFYTYDYWGQGTQVTVSS
Result string: high polyreactivity

Query string: Give its polyreactivity (PSR sort gate) value. Item: QVQLVESGGGLVQAGGSLRLSCAASGSIFWSYGMGWYIQAPGKERELVASTRYADSVKERFTISRDNAKNTVYLLMNSLKPEDTAVYYCAADVWTLDPDEYDYWGQGTQVTVSS
Result string: low polyreactivity
